# TARGET_UNDER_TEST: T1, human BACE1 ECD
# T1 construct: analyte of the Octet assay (200 nM) and enzyme of the first short substrate assay; also called human BACE1 extracellular domain
# ASSAY: Octet, pH 7.5;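 note: antibodies captured on anti-human capture biosensor tips, dissociation followed in PBS with BSA buffer, kinetics fitted with a one-to-one binding model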
Would you mind telling me the reported Kd of each entry?
Entry rule: numbers only, all in nM.

Kindly note the recorded Kd for 5890 (antibody, V domains shown, anti-BACE1 IgG) VH: QVQLVQSGAEVKKPGSSVKVSCKASGGTFSSYAISWVRQAPGQGLEWMGNIIPGFGTANYAQKFQGRVTITADESTSTAYMELSSLRSEDTAVYYCARSGGTKYGMLDVWGQGTMVTVSS VL: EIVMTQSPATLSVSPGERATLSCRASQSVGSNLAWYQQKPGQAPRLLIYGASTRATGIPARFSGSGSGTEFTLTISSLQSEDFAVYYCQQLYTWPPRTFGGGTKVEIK , which is 0.55

Kindly note the recorded Kd for 5888 (antibody, V domains shown, anti-BACE1 IgG) VH: QVQLVQSGAEVKKPGSSVKVSCKASGGTFWKYAISWVRQAPGQGLEWMGNIIPGFGTANYAQKFRGRVTITADESTSTAYMELSSLRSEDTAVYYCARSGGTKYGMLDVWGQGTMVTVSS VL: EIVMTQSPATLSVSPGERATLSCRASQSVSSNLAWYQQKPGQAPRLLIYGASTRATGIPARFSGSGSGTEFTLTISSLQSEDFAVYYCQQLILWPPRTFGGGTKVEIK , which is 0.86

Kindly note the recorded Kd for 5897 (antibody, V domains shown, anti-BACE1 IgG) VH: QLQLQESGPGLVKPSETLSLTCTVSGGSISWSSYYWSWIRQPPGKGLEWIGSIYKSGRTYYNPSLKSRVTISVDTSKNQFSLKLSSVTAADTAVYYCARVGHGISYFDLWGRGTLVTVSS VL: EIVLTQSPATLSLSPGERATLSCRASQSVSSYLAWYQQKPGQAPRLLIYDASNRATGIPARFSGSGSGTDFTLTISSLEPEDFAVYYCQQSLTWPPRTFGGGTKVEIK , which is 0.95
